B1: FAM189A2 (parent)
chain: NLAGFILGCQGAQFVSSVPRCDLV

Variants of: B1
Assay: protein stability index of a GFP-peptide fusion (GPS, HEK-293T) (PSI 1-6); higher = more stable;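 note: lentivirally expressed fusions sorted by FACS into six bins by GFP to DsRed ratio, PSI derived from sequencing read proportions per bin multiplied by bin number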
Recorded Conditions: c terminus: a fixed tail appended
Would you mind telling me the reported protein stability index of each entry?

For reference, reported protein stability index for `I6C` stands at 2.3

For reference, reported protein stability index for `L2D` stands at 3.18

For reference, reported protein stability index for `L2Y` stands at 2.72

For reference, reported protein stability index for `Q10M` stands at 3.99

For reference, reported protein stability index for `F5I` stands at 5.13

For reference, reported protein stability index for `G8W` stands at 2.45

For reference, reported protein stability index for `V24R` stands at 2.19

For reference, reported protein stability index for `N1H` stands at 2.03

For reference, reported protein stability index for `G11N` stands at 3.08

For reference, reported protein stability index for `L7E` stands at 1.77

For reference, reported protein stability index for `Q13V` stands at 2.53

For reference, reported protein stability index for `G8F` stands at 3.47

For reference, reported protein stability index for `L7K` stands at 1.69

For reference, reported protein stability index for `S16W` stands at 3.86

For reference, reported protein stability index for `G4T` stands at 3.08

For reference, reported protein stability index for `I6A` stands at 1.46

For reference, reported protein stability index for `V24I` stands at 2.26

For reference, reported protein stability index for `F5P` stands at 3.25

For reference, reported protein stability index for `V15H` stands at 3.13

For reference, reported protein stability index for `G4M` stands at 4.18

For reference, reported protein stability index for `V15R` stands at 1.75

For reference, reported protein stability index for `F14Y` stands at 2.9

For reference, reported protein stability index for `C9S` stands at 2.71

For reference, reported protein stability index for `D22P` stands at 3.08

For reference, reported protein stability index for `I6D` stands at 2.68

For reference, reported protein stability index for `G11P` stands at 3.59

For reference, reported protein stability index for `Q13M` stands at 2.01

For reference, reported protein stability index for `L2I` stands at 3.93

For reference, reported protein stability index for `F5D` stands at 2.16

For reference, reported protein stability index for `G8P` stands at 2.03

For reference, reported protein stability index for `F14M` stands at 2.71

For reference, reported protein stability index for `P19H` stands at 3.01

For reference, reported protein stability index for `L2H` stands at 1.7

For reference, reported protein stability index for `R20I` stands at 2.15

For reference, reported protein stability index for `S16K` stands at 3.56

For reference, reported protein stability index for `D22E` stands at 1.18

For reference, reported protein stability index for `F5E` stands at 2.18

For reference, reported protein stability index for `V24P` stands at 2.59

For reference, reported protein stability index for `L7P` stands at 1.43

For reference, reported protein stability index for `A12K` stands at 1.89

For reference, reported protein stability index for `V18E` stands at 1.05

For reference, reported protein stability index for `V15C` stands at 2.72

For reference, reported protein stability index for `C21D` stands at 2.33

For reference, reported protein stability index for `G11L` stands at 3.39

For reference, reported protein stability index for `L23F` stands at 3.42

For reference, reported protein stability index for `R20Q` stands at 1.45

For reference, reported protein stability index for `A12F` stands at 2.91

For reference, reported protein stability index for `S17T` stands at 1.97

For reference, reported protein stability index for `V18K` stands at 1.99

For reference, reported protein stability index for `A3F` stands at 2.77

For reference, reported protein stability index for `F14A` stands at 1.29

For reference, reported protein stability index for `A12E` stands at 3.98

For reference, reported protein stability index for `I6G` stands at 1.79

For reference, reported protein stability index for `C21T` stands at 2.56

For reference, reported protein stability index for `V24H` stands at 3.38

For reference, reported protein stability index for `S17H` stands at 3.37

For reference, reported protein stability index for `C21F` stands at 2.92

For reference, reported protein stability index for `L7R` stands at 1.63

For reference, reported protein stability index for `N1Q` stands at 1.85

For reference, reported protein stability index for `G4D` stands at 2.36

For reference, reported protein stability index for `G11D` stands at 2.76

For reference, reported protein stability index for `A3P` stands at 1.45

For reference, reported protein stability index for `S16C` stands at 2.58

For reference, reported protein stability index for `F5T` stands at 1.86

For reference, reported protein stability index for `Q10C` stands at 1.49

For reference, reported protein stability index for `G4F` stands at 2.45

For reference, reported protein stability index for `V15K` stands at 2.19

For reference, reported protein stability index for `V24A` stands at 1.72

For reference, reported protein stability index for `F14R` stands at 1.27

For reference, reported protein stability index for `C9K` stands at 1.74

For reference, reported protein stability index for `C21Q` stands at 2.07

For reference, reported protein stability index for `R20H` stands at 3.48

For reference, reported protein stability index for `F14K` stands at 1.16

For reference, reported protein stability index for `L2R` stands at 1.87

For reference, reported protein stability index for `P19A` stands at 3.01

For reference, reported protein stability index for `Q13C` stands at 2.76

For reference, reported protein stability index for `V15E` stands at 1.94

For reference, reported protein stability index for `G11W` stands at 3.48

For reference, reported protein stability index for `V24F` stands at 2.58

For reference, reported protein stability index for `Q10G` stands at 2.63

For reference, reported protein stability index for `Q13D` stands at 2.27

For reference, reported protein stability index for `A3K` stands at 2.35

For reference, reported protein stability index for `C21H` stands at 2.54

For reference, reported protein stability index for `F5S` stands at 1.87

For reference, reported protein stability index for `A3M` stands at 3.4

For reference, reported protein stability index for `D22C` stands at 2.27

For reference, reported protein stability index for `L7H` stands at 1.73

For reference, reported protein stability index for `A3E` stands at 2.11

For reference, reported protein stability index for `N1A` stands at 3.77

For reference, reported protein stability index for `S17Q` stands at 2.31

For reference, reported protein stability index for `C9G` stands at 2.35
